Would you mind telling me the reported IC50 of each entry?
molecular target: HLA-A*02:01; experiment: IEDB peptide-MHC binding, cellular MHC/competitive/fluorescence; bounds were set here for any values at or beyond the usual limits of such assays; settings: source organism: Mammarenavirus brazilense
Give the value in µM but do not write µM after it.

// query Give the reported value of IC50 for this record: `AINIALIAV`
// result 8.3

// query Give the reported value of IC50 for this record: `LNISGYNYSL`
// result 10.6

// query Give the reported value of IC50 for this record: `MSPALFFTFL`
// result 6.38

// query Give the reported value of IC50 for this record: `ICFWSTLFFT`
// result 11.9

// query Give the reported value of IC50 for this record: `LRYFIMAYV`
// result 12.7

// query Give the reported value of IC50 for this record: `LSNCVHPAV`
// result 12.2

// query Give the reported value of IC50 for this record: `RSASGGVYL`
// result 32.5

// query Give the reported value of IC50 for this record: `KNATWCLEV`
// result 12.8

====

target: HLA-A*68:02; assay: IEDB peptide-MHC binding, cellular MHC/competitive/fluorescence; bounds were set here for any values at or beyond the usual limits of such assays; conditions: source organism: SARS-CoV1
Param label: returns criterion met when IC50 < 10 µM, returns criterion not met otherwise, including exact equality.

// query For this sequence, is IC50 lower than 10 µM? `ILFLTLIVFT`
// result criterion met

// query For this sequence, is IC50 lower than 10 µM? `FLLFLVLIML`
// result criterion met

// query For this sequence, is IC50 lower than 10 µM? `SLVTSFLLM`
// result criterion not met

// query For this sequence, is IC50 lower than 10 µM? `KLFTIAMWLL`
// result criterion met

// query For this sequence, is IC50 lower than 10 µM? `HLDGEVLSL`
// result criterion not met

// query For this sequence, is IC50 lower than 10 µM? `LLLSICLGSL`
// result criterion not met

// query For this sequence, is IC50 lower than 10 µM? `ALLFLMSFT`
// result criterion not met

// query For this sequence, is IC50 lower than 10 µM? `MLIIFWFSL`
// result criterion met

// query For this sequence, is IC50 lower than 10 µM? `FLTNKLLLFA`
// result criterion not met

// query For this sequence, is IC50 lower than 10 µM? `AMWLLLLSI`
// result criterion not met

// query For this sequence, is IC50 lower than 10 µM? `KLLIVLTCI`
// result criterion met

// query For this sequence, is IC50 lower than 10 µM? `FQFICNLLLL`
// result criterion met

// query For this sequence, is IC50 lower than 10 µM? `LLDDFVEII`
// result criterion not met

// query For this sequence, is IC50 lower than 10 µM? `LLVAAGMEA`
// result criterion not met

// query For this sequence, is IC50 lower than 10 µM? `TLLLWISVKV`
// result criterion not met

// query For this sequence, is IC50 lower than 10 µM? `LMYKGLPWNV`
// result criterion met

// query For this sequence, is IC50 lower than 10 µM? `LLVTLAILTA`
// result criterion not met

// query For this sequence, is IC50 lower than 10 µM? `LLLEWLAEVV`
// result criterion not met

// query For this sequence, is IC50 lower than 10 µM? `ALVLLILMTA`
// result criterion not met

// query For this sequence, is IC50 lower than 10 µM? `LVFLILCFT`
// result criterion met

// query For this sequence, is IC50 lower than 10 µM? `LLFLVLIMLI`
// result criterion met
